molecular target: KRas^G12R (Homo sapiens, UniProt P01116, G12R); construct: […]; biotin (biotinylated); experiment: KRas binding assay (TR-FRET displacement of Cy5 labelled tracer)
Sequence (P01116 1-169 isoform P01116-2 G12R): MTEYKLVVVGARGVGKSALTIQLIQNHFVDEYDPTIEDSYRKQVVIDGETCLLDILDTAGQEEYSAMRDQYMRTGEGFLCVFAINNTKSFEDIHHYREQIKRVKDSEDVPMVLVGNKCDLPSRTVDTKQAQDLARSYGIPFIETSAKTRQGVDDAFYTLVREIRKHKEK
pIC50: −log10 of the molar value.
Items are presented alongside their recorded pIC50.

- Compound: "O=S1(=O)NCC2(CCCN(c3nc(OC[C@@]45CCCN4C[C@H](F)C5)nc4c3CCN(c3cc(O)cc5ccc(F)c(Cl)c35)C4)C2)N1 (some centres unmarked) [Example 72]"
  pIC50: "≥ 8.70"
- Compound: "O=C1NCC12CCCN(c1nc(OC[C@@]34CCCN3C[C@H](F)C4)nc3c1CCN(c1cc(O)cc4ccc(F)c(Cl)c14)C3)C2 (some centres unmarked) [Example 231]"
  pIC50: 7.59
- Compound: "Nc1cc2n(n1)CCCN(c1nc(OC[C@@]34CCCN3C[C@H](F)C4)nc3c1CCN(c1cc(O)cc4ccc(F)c(Br)c14)C3)C2 [Example 212]"
  pIC50: "≥ 8.70"

Exercise: Look at this compound and give its reported pIC50. CCc1c(F)ccc2cc(O)cc(N3CCc4c(nc(OC[C@@]56CCCN5C[C@H](F)C6)nc4N4CCCn5nc(C(=O)NC(C)C)cc5C4)C3)c12 [Example 188]
Key: ≥ 8.70

Exercise: What about this compound? O=C1NC(=O)C2(CCCN(c3nc(OC[C@@]45CCCN4C[C@H](F)C5)nc4c3CCN(c3cc(O)cc5ccc(F)c(Br)c35)C4)C2)N1 (some centres unmarked) [Example 217]
Key: ≥ 8.70

----------
target: KRas^G12R (Homo sapiens, UniProt P01116, G12R); construct: […]; biotin (biotinylated); assay: KRas binding assay (TR-FRET displacement of Cy5 labelled tracer)
Readout Label: IC50 (nM)

[A] CCc1c(F)ccc2cc(O)cc(N3CCc4c(nc(OC[C@@]56CCCN5C[C@H](F)C6)nc4N4CCCC5(CNS(=O)(=O)N5)C4)C3)c12 (stereo partly drawn)
[B] CCc1c(F)ccc2cc(O)cc(N3CCc4c(nc(OC[C@@]56CCCN5C[C@H](F)C6)nc4N4CC5CC(O)C5C4)C3)c12 (stereo partly drawn)
[C] CCc1c(F)ccc2cc(O)cc(N3CCc4c(nc(OC[C@@]56CCCN5C[C@H](F)C6)nc4N4CCCc5ncccc5C4)C3)c12
Exercise: Lab note: IC50 ranking, ascending, for the listed compounds. In plain terms: list the labels in the order you were asked to.
Key: C, A, B
(C: 6 nM, A: 9 nM, B: 15 nM)

----------
target: KRas^WT (Homo sapiens, UniProt P01116); construct: […]; biotin (biotinylated); purchased Accelegan Inc; assay: KRas binding assay (TR-FRET displacement of Cy5 labelled tracer)
Sequence (P01116 1-169 isoform P01116-2): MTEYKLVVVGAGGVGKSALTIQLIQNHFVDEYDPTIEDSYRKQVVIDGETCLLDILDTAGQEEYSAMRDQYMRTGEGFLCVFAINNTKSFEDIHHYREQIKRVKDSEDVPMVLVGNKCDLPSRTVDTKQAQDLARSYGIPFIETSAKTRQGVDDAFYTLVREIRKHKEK
pIC50: −log10 of the molar value.
Readout Label: pIC50

Please review the following examples before continuing.
- Molecule: "CCc1cccc2cccc(N3CCc4c(nc(OCC56CCCN5CCC6)nc4NCc4cccnc4-n4cncn4)C3)c12"
  Target: "KRas^WT (Homo sapiens, UniProt P01116)"
  Recorded Measurement: 5.12
- Molecule: "CCc1cccc2cccc(N3CCc4c(nc(OCC56CCCN5CCC6)nc4N4CCCn5nc(C)cc5C4)C3)c12"
  Target: "KRas^WT (Homo sapiens, UniProt P01116)"
  Recorded Measurement: 5.29
- Molecule: "CCc1c(F)ccc2cc(O)cc(N3CCc4c(nc(OC[C@@]56CCCN5C[C@H](F)C6)nc4NCc4c[nH]c5ncccc45)C3)c12"
  Target: "KRas^WT (Homo sapiens, UniProt P01116)"
  Recorded Measurement: 7.44
- Molecule: "CCc1cccc2cccc(N3CCc4c(nc(OCC56CCCN5CCC6)nc4N4CCCC(c5cc(=O)[nH][nH]5)C4)C3)c12 (centres unmarked)"
  Target: "KRas^WT (Homo sapiens, UniProt P01116)"
  Recorded Measurement: 6.00
- Molecule: "CCc1cccc2cccc(N3CCc4c(nc(OCC56CCCN5CCC6)nc4NC4CN(c5ccccn5)C4)C3)c12"
  Target: "KRas^WT (Homo sapiens, UniProt P01116)"
  Recorded Measurement: 5.33

[a] CCc1cccc2cccc(N3CCc4c(nc(OCC56CCCN5CCC6)nc4N4CC5CC(O)CC4C5)C3)c12 (centres unmarked)
[b] CCc1cccc2cccc(N3CCc4c(nc(OCC56CCCN5CCC6)nc4N4CCCC(c5ncn[nH]5)C4)C3)c12 (centres unmarked)
[c] CCc1cccc2cccc(N3CCc4c(nc(OCC56CCCN5CCC6)nc4N4CCC(c5[nH]ncc5N)C4)C3)c12 (centres unmarked)
[d] CCc1cccc2cccc(N3CCc4c(nc(OCC56CCCN5CCC6)nc4NC4CCNC(=O)C4)C3)c12 (centres unmarked)
Exercise: Order the 4 molecules from highest to lowest pIC50. In plain terms: list the labels in the order you were asked to.
Key: a, b, c, d
(a: 6.27, b: 6.05, c: 5.74, d: 5.07)

----------
Items are presented alongside their recorded IC50.
target: KRas^G12D (Homo sapiens, UniProt P01116, G12D); construct: […]; biotin (biotinylated); assay: KRas binding assay (TR-FRET displacement of Cy5 labelled tracer)
Sequence (P01116 1-169 isoform P01116-2 G12D): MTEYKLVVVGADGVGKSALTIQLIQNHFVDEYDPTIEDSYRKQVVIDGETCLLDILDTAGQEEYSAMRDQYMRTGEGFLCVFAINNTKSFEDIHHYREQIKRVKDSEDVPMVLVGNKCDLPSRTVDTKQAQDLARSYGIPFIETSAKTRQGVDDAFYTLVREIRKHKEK

Please review the following examples before continuing.
- Molecule: "CCc1c(F)ccc2cc(O)cc(N3CCc4c(nc(OC[C@@]56CCCN5C[C@H](F)C6)nc4N4CCCc5nc(N)sc5C4)C3)c12 [Example 181]"
  IC50: "≤ 2 nM"
- Molecule: "O=C1NC(=O)C2CN(c3nc(OC[C@@]45CCCN4C[C@H](F)C5)nc4c3CCN(c3cc(O)cc5ccc(F)c(Cl)c35)C4)CC12 (stereo partly drawn) [Example 232]"
  IC50: "≤ 2 nM"

Then there is this molecule:
Exercise: Look at this molecule and give its reported IC50. CCc1c(F)ccc2cc(O)cc(N3CCc4c(nc(OC[C@@]56CCCN5C[C@H](F)C6)nc4N4CCCCC(S(C)(=O)=O)C4)C3)c12 (stereo partly drawn) [Example 28]
Key: ≤ 2 nM

----------
biological target: KRas^G12R (Homo sapiens, UniProt P01116, G12R); construct: […]; biotin (biotinylated); assay: KRas binding assay (TR-FRET displacement of Cy5 labelled tracer)
Readout Label: IC50 (µM)

Please review the following examples before continuing.
- Compound: "CCc1cccc2cccc(N3CCc4c(nc(OCC56CCCN5CCC6)nc4N4CCOCC(n5cncn5)C4)C3)c12 (stereo not drawn)"
  Target: "KRas^G12R (Homo sapiens, UniProt P01116, G12R)"
  Readout Label: "IC50"
  Result Unit: "µM"
  Recorded Measurement: 0.47
- Compound: "CCc1cccc2cccc(N3CCc4c(nc(OCC56CCCN5CCC6)nc4N4CCCC(c5nc(C)c(C(=O)NC6CCC6)o5)C4)C3)c12 (stereo not drawn)"
  Target: "KRas^G12R (Homo sapiens, UniProt P01116, G12R)"
  Readout Label: "IC50"
  Result Unit: "µM"
  Recorded Measurement: 1.44
- Compound: "CCc1cccc2cccc(N3CCc4c(nc(OCC56CCCN5CCC6)nc4N4CCCC(c5nc(N)n(C)n5)C4)C3)c12 (stereo not drawn)"
  Target: "KRas^G12R (Homo sapiens, UniProt P01116, G12R)"
  Readout Label: "IC50"
  Result Unit: "µM"
  Recorded Measurement: 0.104

[I] CCc1cccc2cccc(N3CCc4c(nc(OCC56CCCN5CCC6)nc4N4CCCCCC(S(C)(=O)=O)C4)C3)c12 (stereo not drawn)
[II] CCc1cccc2cccc(N3CCc4c(nc(OCC56CCCN5CCC6)nc4N4CCCC(c5ncn[nH]5)C4)C3)c12 (stereo not drawn)
Exercise: compare I and II ; which one has the greater IC50? Select an item and report its label.
Key: II
(II: 0.397 µM, I: 0.233 µM)

----------
molecular target: KRas^G12D (Homo sapiens, UniProt P01116, G12D); construct: […]; biotin (biotinylated); test: KRas binding assay (TR-FRET displacement of Cy5 labelled tracer)
Items are presented alongside their recorded IC50.

- Molecule: "CCc1c(F)ccc2cc(O)cc(N3CCc4c(nc(OC[C@@]56CCCN5C[C@H](F)C6)nc4N4C[C@H](O)C[C@@H](C(N)=O)C4)C3)c12 [Example 186]"
  Target: "KRas^G12D (Homo sapiens, UniProt P01116, G12D)"
  IC50: "≤ 2 nM"

Exercise: Look at this molecule and give its reported IC50. CN(C)C(=O)c1cc2n(n1)CCCN(c1nc(OC[C@@]34CCCN3C[C@H](F)C4)nc3c1CCN(c1cc(O)cc4ccc(F)c(Cl)c14)C3)C2 [Example 229]
Key: ≤ 2 nM

Exercise: What about this molecule? C[C@@]1(O)CCCN(c2nc(OC[C@@]34CCCN3C[C@H](F)C4)nc3c2CCN(c2cc(O)cc4ccc(F)c(Br)c24)C3)C1 [Example 222]
Key: ≤ 2 nM

Exercise: What about this molecule? CCc1cccc2cccc(N3CCc4c(nc(OCC56CCCN5CCC6)nc4N4CCCCC(CO)C4)C3)c12 (centres unmarked) [Example 38]
Key: ≤ 2 nM
